- Tested on: TK-10
- procedure-details: NCI tumour cell line growth inhibition, 48 h
Calls of active or inactive are those of the source. Cut-off read from the data, not from the text of the source: active = GI50 up to about 1.1 µM and inactive = higher.
measured-parameter: GI50

Some solved entries appear below for comparison.
{"compound": "COc1cc2c3c(cc(Cl)nc3c1OC)C(O)(CC(C)=O)C(=O)N2 (stereo not given)", "result": "20.2 µM (inactive)"}
{"compound": "COC(=O)C1C=NNC1C(=O)OC (stereo not given)", "result": "> 100 µM (inactive)"}
{"compound": "O=C(O)CSc1nnc(COc2ccc(Cl)cc2)n1-c1ccccc1", "result": "> 100 µM (inactive)"}
{"compound": "N/C(S)=N/N=C/c1ccc(O)cn1", "result": "105 µM (inactive)"}
{"compound": "COc1cc(OC)c2nc(C)c3c(c2c1)OCC3", "result": "> 100 µM (inactive)"}
{"compound": "O=C(C#Cc1cn(C2CC(O)C(CO)O2)c(=O)[nH]c1=O)c1ccccc1 (stereo not given)", "result": "> 100 µM (inactive)"}

Task: Need GI50 of Cn1c(-c2cccc(N)c2)[n+](C)c2ccccc21 , thanks.
Result: > 100 µM (inactive)

Task: What do we get for COc1cccc(Nc2nc(-c3cccs3)nc3ccc(Br)cc23)c1 ?
Result: 36.7 µM (inactive)

Task: What do we get for COc1nc(NC2OCC(OC(C)=O)C(OC(C)=O)C2OC(C)=O)c(/N=C\C=N\c2c(NC3OCC(OC(C)=O)C(OC(C)=O)C3OC(C)=O)nc(OC)n(C)c2=O)c(=O)n1C (stereo not given) ?
Result: > 100 µM (inactive)

Task: What do we get for COc1ccc(N2C(=O)c3c4c(c5c([nH]c6ncccc65)c3C2=O)CCC(C(C)(C)C)C4)cc1 (stereo not given) ?
Result: 66.4 µM (inactive)

###

- Tested on: SF-268
- procedure-details: NCI tumour cell line growth inhibition, 48 h
Active and inactive are the calls of the source. No stated cut-off is given here; in the data, active = GI50 up to about 1.1 µM and inactive = higher. Square brackets hold non-standard residues; d marks the D form. Peptide text beside a SMILES is read from it. pGlu = O=C1CC[CH](C(=O)O)N1
measured-parameter: GI50

{"compound": "CC(NC(=O)C(Cc1c[nH]cn1)NC(=O)C1CCC(=O)N1)C(N)=O (stereo not drawn) ([pGlu]-His-Ala-NH2; configuration not given here)", "tested-target": "SF-268", "GI50": "> 100 µM (inactive)"}
{"compound": "CCc1nc2cc(F)ccc2[nH]c1=O", "tested-target": "SF-268", "GI50": "> 100 µM (inactive)"}
{"compound": "O=P(O)(O)CN1CCN(CP(=O)(O)O)CCN(CP(=O)(O)O)CCN(CP(=O)(O)O)CC1", "tested-target": "SF-268", "GI50": "> 100 µM (inactive)"}

Task: Record lookup: for SF-268, what GI50 belongs to Cc1ccc(C2NC(=O)c3ccccc3N2)s1 (stereo not drawn) ?
Result: 8 µM (inactive)

Task: What do we get for COc1ccc(C2=C3c4cc(OC)c(OC)cc4CCN3C(=S)SS2)cc1OC ?
Result: 72.1 µM (inactive)

Task: What do we get for O=C(O)CN1C(=O)OC(c2ccccc2)C1=O (stereo not drawn) ?
Result: > 100 µM (inactive)

Task: What do we get for CC1=NN(c2nc(N)nc(CN3CCOCC3)n2)C(C)(C)C1 ?
Result: > 100 µM (inactive)

Task: What do we get for COC(=O)NC1C(C)OC(OC2C/C=C(/C)C3C=CC4C(OC5CC(OC6CCC(OC7CC(O)C(OC8CCC(O)C(C)O8)C(C)O7)C(C)O6)C(OC(C)=O)C(C)O5)C(C)CC(C)C4C3(C)/C(O)=C3/C(=O)OC4(CC(C=O)=CC(O)C4/C=C\2C)C3=O)CC1(C)[N+](=O)[O-] (stereo not drawn) ?
Result: 0.719 µM (active)

###

# maps each entry to its GI50
- System: SK-OV-3
- procedure-details: NCI tumour cell line growth inhibition, 48 h
Activity calls are given as the source filed them. Cut-off read from the data, not from the text of the source: active = GI50 up to about 1.1 µM and inactive = higher.

{"compound": "CCc1ccc(/N=C\\c2cc(OC)c(OC)c(OC)c2)cc1", "result": "> 100 µM (inactive)"}
{"compound": "O=C(CCl)N1CCN(c2ccccc2)CC1", "result": "70.1 µM (inactive)"}
{"compound": "COc1ccc(C(C)c2cc3c(cc2OC)OCO3)cc1 (stereo not given)", "result": "0.2 µM (active)"}

Task: Need GI50 of O=C(NCCCN1CCN(CCCNC(=O)c2cccc3ccccc23)CC1)c1cccc2ccccc12 , thanks.
Result: 23 µM (inactive)

Task: What do we get for C=C1C(=O)O[C@@H]2C[C@@H]3[C@]4(CC[C@]5(C)[C@@H]([C@H](C)CC/C=C(\C)C=O)CC[C@@]35C)C[C@]4(CCC(=O)OC)[C@H]12 ?
Result: 3.52 µM (inactive)

###

- System: HOP-62
- procedure-details: NCI tumour cell line growth inhibition, 48 h
Activity calls are given as the source filed them. Rule as the data show it: active = GI50 up to about 1.1 µM and inactive = higher.
# maps each entry to its GI50

Some solved entries appear below for comparison.
{"smiles-notation": "CC(C)(CN1CCCCC1)C(/C=C/c1ccc(Cl)c(Cl)c1)=N\\NC(=O)N/N=C(/C=C/c1ccc(Cl)c(Cl)c1)C(C)(C)CN1CCCCC1", "result": "1.87 µM (inactive)"}
{"smiles-notation": "CC(C)=CCC[C@]1(C)C=Cc2c(O)c3c(c(CC=C(C)C)c2O1)O[C@]12C(=C[C@@H]4CC1C(C)(C)O[C@@]2(C/C=C(/C)C(=O)O)C4=O)C3=O", "result": "1.69 µM (inactive)"}
{"smiles-notation": "Cl.O=C(O)c1cccnc1", "result": "> 100 µM (inactive)"}
{"smiles-notation": "COC[C@H](C)/N=C/N1CCc2ccccc2C1(Cc1ccccc1)Cc1ccccc1", "result": "24.8 µM (inactive)"}
{"smiles-notation": "NNC(=O)c1ccccc1Nc1ccccc1C(=O)NN", "result": "> 100 µM (inactive)"}

Task: Need GI50 of CN(C)c1ccc(/C=C(\NC(=O)c2ccccc2)C(=O)Nc2ccccc2C(=O)NCc2ccccc2)cc1 , thanks.
Result: 31.4 µM (inactive)

Task: What do we get for Cc1cc2c(C)nn(Cc3ccccc3)c2c(C(=O)O)c1C ?
Result: > 100 µM (inactive)

Task: What do we get for O=C(CSCC(=O)N/N=C\c1cccc([N+](=O)[O-])c1)N/N=C\c1cccc([N+](=O)[O-])c1 ?
Result: 2.01 µM (inactive)

Task: What do we get for CC(C)OP(=O)(OC(C)C)c1ccc2c(c1)OCCOCCOCCOCCO2 ?
Result: > 100 µM (inactive)

###

- System: UACC-62
- procedure-details: NCI tumour cell line growth inhibition, 48 h
Activity calls are given as the source filed them. Rule as the data show it: active = GI50 up to about 1.1 µM and inactive = higher.
measured-parameter: GI50

{"compound": "Nc1ccc(C(=O)NN2C(=O)C(Cl)C2c2ccccc2O)cc1 (stereo not given)", "GI50": "72.3 µM (inactive)"}
{"compound": "C=C1C(C(=O)OC)[C@H]1C(=O)OC (stereo not given in full)", "GI50": "> 100 µM (inactive)"}
{"compound": "C/C=C(/C)C(=O)O[C@H]1C(C)=C[C@]23C(=O)[C@@H](C=C(COC(C)=O)[C@@H](O)[C@]12O)[C@H]1[C@@H](C[C@H]3C)[C@@]1(C)OC(=O)/C(C)=C\\C", "GI50": "2.37 µM (inactive)"}
{"compound": "CCN(CC)c1ccc2cc(C(N)=O)/c(=N/c3ccc(F)cc3)oc2c1", "GI50": "26.4 µM (inactive)"}
{"compound": "CCOC(=O)c1cc(C2=C(S)N(CC(C)CC)CC2)c(C(=O)CC)[nH]1 (stereo not given)", "GI50": "16.6 µM (inactive)"}

Task: Need GI50 of C/C(=N/O)c1sc(-c2nc(C)c(/C(C)=N\O)s2)nc1C , thanks.
Result: > 100 µM (inactive)

Task: What do we get for CC1(O)Oc2ccc3ccccc3c2C=C1C(N)=O (stereo not given) ?
Result: > 100 µM (inactive)

Task: What do we get for CCNC1=C(NC(=O)c2ccc(OC)cc2)C(=O)c2ccccc2C1=O ?
Result: 39.4 µM (inactive)

Task: What do we get for Oc1cc(O)c2c(c1)OC(c1ccc(O)c(O)c1)C(O)C2c1c(O)cc(O)c2c1OC(c1ccc(O)c(O)c1)C(O)C2 (stereo not given) ?
Result: > 100 µM (inactive)

Task: What do we get for CCOC(=N)CC(=O)Nc1ccc(Cl)cc1 ?
Result: > 100 µM (inactive)

###

- Test system: 786-0
- procedure-details: NCI tumour cell line growth inhibition, 48 h
Activity calls are given as the source filed them. Cut-off read from the data, not from the text of the source: active = GI50 up to about 1.1 µM and inactive = higher.
# maps each entry to its GI50

{"molecule": "CCOC(=O)/C=C(/C(=O)OCC)n1ccc(=O)[nH]c1=O", "GI50": "3.36 µM (inactive)"}
{"molecule": "CC(=O)OCc1cc(CCC(=O)NCCNc2c3ccccc3nc3ccccc23)cc(COC(C)=O)c1O[Si](C)(C)C(C)(C)C", "GI50": "8.81 µM (inactive)"}

Task: Need GI50 of COc1cc(OC2OC(COC(=O)c3cc(O)c(O)c(O)c3)C(O)C(O)C2O)ccc1O (stereo not given) , thanks.
Result: > 100 µM (inactive)

Task: What do we get for Cc1ccc(/C=c2\cc3oc(=O)c4cccc(c4-3)c2=O)cc1 ?
Result: > 100 µM (inactive)

Task: What do we get for O=P(O)(O)CN1CCN(CP(=O)(O)O)CCN(CP(=O)(O)O)CCN(CP(=O)(O)O)CC1 ?
Result: > 100 µM (inactive)
